Measured Ki values are reported for all entries that follow.
target: LHRH receptors (Rattus norvegicus)
Sequence (P30969 whole entry): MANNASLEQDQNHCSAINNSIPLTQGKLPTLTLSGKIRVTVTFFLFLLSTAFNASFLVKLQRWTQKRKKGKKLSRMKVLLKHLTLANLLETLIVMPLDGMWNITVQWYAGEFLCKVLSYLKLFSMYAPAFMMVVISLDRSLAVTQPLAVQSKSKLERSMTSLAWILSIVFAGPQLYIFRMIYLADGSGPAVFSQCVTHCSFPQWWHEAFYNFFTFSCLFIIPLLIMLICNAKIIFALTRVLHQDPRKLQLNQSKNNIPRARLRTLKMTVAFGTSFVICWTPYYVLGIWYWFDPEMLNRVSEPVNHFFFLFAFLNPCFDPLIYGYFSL
assay_text: Radioligand receptor binding assay
condition_label: rat pituitary membranes; radioiodinated [D-Leu⁶-des Gly¹⁰]-LHRH ethyl amide 50pM; 2 hours at 4°C; read-out: Receptor Binding pkI (converted)
# unit: nM | format: bare number

mol	target	Ki [nM]
CCNC(=O)[C@@H]1CCCN1C(=O)[C@H](CCCN=C(N)N)NC(=O)[C@H](CC(C)C)NC(=O)[C@@H](CC(C)C)N(C)C(=O)[C@H](Cc1ccc(O)cc1)NC(=O)[C@H](CO)NC(=O)[C@H](Cc1c[nH]c2ccccc12)NC(=O)[C@H](Cc1cnc[nH]1)NC(=O)[C@@H]1CCC(=O)N1	LHRH receptors (Rattus norvegicus)	0.692
CC(C)C[C@H](NC(=O)[C@@H](Cc1ccc2ccccc2c1)NC(=O)[C@H](Cc1ccc(O)cc1)NC(=O)[C@H](CO)N(C)C(=O)[C@H](Cc1c[nH]c2ccccc12)NC(=O)[C@H](Cc1c[nH]cn1)NC(=O)[C@@H]1CCC(=O)N1)C(=O)N[C@@H](CCCN=C(N)N)C(=O)N1CCC[C@H]1C(=O)NCC(N)=O	LHRH receptors (Rattus norvegicus)	0.0398
CCNC(=O)[C@@H]1CCCN1C(=O)[C@H](CCCN=C(N)N)NC(=O)[C@H](CC(C)C)NC(=O)[C@@H](Cc1c[nH]c2ccccc12)NC(=O)[C@H](Cc1ccc(O)cc1)N(C)C(=O)[C@H](CO)NC(=O)[C@H](Cc1c[nH]c2ccccc12)NC(=O)[C@H](Cc1c[nH]cn1)NC(=O)[C@@H]1CCC(=O)N1	LHRH receptors (Rattus norvegicus)	0.0158

Shift focus to the following entry.
INPUT: State, in one line, measured Ki of "CCNC(=O)[C@@H]1CCCN1C(=O)[C@H](CCCNC(=N)N)NC(=O)[C@H](CC(C)C)N1CC[C@H](NC(=O)[C@H](Cc2ccc(O)cc2)NC(=O)[C@H](CO)N(C)C(=O)[C@H](Cc2c[nH]c3ccccc23)NC(=O)[C@H](Cc2c[nH]cn2)NC(=O)[C@@H]2CCC(=O)N2)C1=O"
OUTPUT: 0.038
